- TGT: Prolyl 4-hydroxylase subunit alpha-1 (Rattus norvegicus, UniProt P54001)
- Sequence (P54001 whole entry): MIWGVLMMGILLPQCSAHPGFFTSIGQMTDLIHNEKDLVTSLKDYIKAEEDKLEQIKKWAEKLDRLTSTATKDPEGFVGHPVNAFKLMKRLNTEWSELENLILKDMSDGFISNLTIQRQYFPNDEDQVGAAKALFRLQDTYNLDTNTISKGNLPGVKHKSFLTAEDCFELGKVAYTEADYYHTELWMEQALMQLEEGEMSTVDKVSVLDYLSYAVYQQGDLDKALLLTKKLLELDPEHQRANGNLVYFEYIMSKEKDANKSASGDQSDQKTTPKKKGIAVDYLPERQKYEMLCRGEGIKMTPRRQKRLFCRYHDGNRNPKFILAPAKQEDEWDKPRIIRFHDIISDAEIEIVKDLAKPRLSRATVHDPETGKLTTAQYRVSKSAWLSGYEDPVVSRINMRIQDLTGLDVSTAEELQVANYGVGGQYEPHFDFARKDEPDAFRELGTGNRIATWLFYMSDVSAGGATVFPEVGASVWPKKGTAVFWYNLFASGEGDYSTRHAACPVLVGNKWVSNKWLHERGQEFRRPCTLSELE
- ASSAY METHOD TEXT: Compound was evaluated for the inhibition of prolyl 4-hydroxylase
MEASURED METRIC: pIC50
# pIC50 = -log10(concentration in molar units)

Input line: // pIC50 lookup, key: C[C@@H](NC(=O)C(=O)O)C(=O)O
Output line: 3.21

---

- TGT: Prolyl 4-hydroxylase subunit alpha-1 (Rattus norvegicus, UniProt P54001)
- ASSAY METHOD TEXT: Compound was evaluated for the inhibition of prolyl 4-hydroxylase
Readings of pIC50 for the listed compounds
# pIC50 = -log10(concentration in molar units)

Examples from the recorded data:
COMPOUND: CS(=O)(=O)NC(=O)CNC(=O)C(=O)O
MEASURED METRIC: pIC50
MEASURED NUMBER: 3.38
//
COMPOUND: O=C(O)c1ccc(C(=O)O)nc1
MEASURED METRIC: pIC50
MEASURED NUMBER: 5.29
//
COMPOUND: C[C@H](NC(=O)C(=O)O)C(=O)O
MEASURED METRIC: pIC50
MEASURED NUMBER: 4.42
//
COMPOUND: O=C(O)CNC(=O)C(=O)O
MEASURED METRIC: pIC50
MEASURED NUMBER: 5.54

Shifting focus to the compound that follows.
Input line: // pIC50 lookup, key: CC(NC(=O)C(=O)O)C(=O)O (stereo not given)
Output line: 4.04

Reference source: ChEMBL document CHEMBL1125483
